// endpoint AC50 / system Cytochrome P450 2C9 (Homo sapiens, UniProt P11712)

Before answering, review these 5 worked examples.
Report the value of AC50 obtained on Cytochrome P450 2C9 (Homo sapiens, UniProt P11712) for `CN(C)CCCn1cc(C2=C(c3c[nH]c4ccccc34)C(=O)NC2=O)c2ccccc21` .
Sequence (P11712 whole entry): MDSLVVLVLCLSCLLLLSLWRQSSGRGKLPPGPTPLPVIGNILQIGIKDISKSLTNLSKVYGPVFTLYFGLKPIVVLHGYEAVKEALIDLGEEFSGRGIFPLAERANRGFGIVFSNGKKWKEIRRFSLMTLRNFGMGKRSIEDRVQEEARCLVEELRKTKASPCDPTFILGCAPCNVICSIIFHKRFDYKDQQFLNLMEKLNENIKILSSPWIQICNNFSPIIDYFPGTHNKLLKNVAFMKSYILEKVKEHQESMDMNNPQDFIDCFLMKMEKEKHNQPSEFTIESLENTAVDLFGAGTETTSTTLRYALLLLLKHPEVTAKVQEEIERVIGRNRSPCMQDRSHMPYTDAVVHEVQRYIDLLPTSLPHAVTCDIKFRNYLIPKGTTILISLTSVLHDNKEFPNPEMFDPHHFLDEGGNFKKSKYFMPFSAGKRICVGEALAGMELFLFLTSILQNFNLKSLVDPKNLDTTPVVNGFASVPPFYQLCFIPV
15.8 µM (inconclusive)

Report the value of AC50 obtained on Cytochrome P450 2C9 (Homo sapiens, UniProt P11712) for `CCCCN(C(=O)NC(=O)Nc1ccccc1OCC)S(C)(=O)=O` .
8.91 µM (inconclusive)

Report the value of AC50 obtained on Cytochrome P450 2C9 (Homo sapiens, UniProt P11712) for `CCOC(=O)Nc1ccc2c(c1)OCO2` .
39.8 µM (inconclusive)

Report the value of AC50 obtained on Cytochrome P450 2C9 (Homo sapiens, UniProt P11712) for `O=C(N/N=C(\c1ccccc1)c1cccnc1)C(O)(c1ccccc1)c1ccccc1` .
0.794 µM (inconclusive)

Report the value of AC50 obtained on Cytochrome P450 2C9 (Homo sapiens, UniProt P11712) for O=C(O)C[S+]([O-])c1ccc2c3c(cccc13)C(=O)c1ccccc1-2 (centres undefined) .
6.31 µM (inconclusive)

More entries:
Report the value of AC50 obtained on Cytochrome P450 2C9 (Homo sapiens, UniProt P11712) for `CC(C)(C)NC(=O)C(=O)N/N=C/c1ccc(Br)cc1` .
15.8 µM (inconclusive)

Report the value of AC50 obtained on Cytochrome P450 2C9 (Homo sapiens, UniProt P11712) for `CC(=O)NCCc1c(Cc2ccccc2)[nH]c2ccccc12` .
15.8 µM (inconclusive)

Report the value of AC50 obtained on Cytochrome P450 2C9 (Homo sapiens, UniProt P11712) for `COc1ccc(CNc2nc(-c3c(C)noc3C)nc3ccccc23)c(OC)c1` .
1 µM (inconclusive)

----------
Catalogue of EC50 values
Test system: H4
Assay: Luminescence Cell-Based Dose Response HTS to Identify Activators of 5'UTR Stem-Loop Driven Prion Protein mRNA Translation in H4 Neuroglioblastoma Cells. [Related pubchem assays: 1829 (Project Summary), 1814 (Primary HTS)]
Type: functional
Conditions: Homo sapiens
Activity calls are given as the source filed them.

Report the value of EC50 obtained on H4 for `Cc1nc(NC(=O)c2cccs2)ccc1Br` .
0.129 µM (active)

Report the value of EC50 obtained on H4 for `Cc1ccc(-n2sc3ccccc3c2=O)cc1` .
88.2 µM (active)

Report the value of EC50 obtained on H4 for `CS(=O)(=O)c1nc(S(=O)(=O)c2ccc(Cl)cc2)c(N2CCC3(CC2)OCCO3)s1` .
> 120 µM (not active)

Report the value of EC50 obtained on H4 for `COc1cccc(Oc2nnnn2-c2ccccc2)c1` .
> 120 µM (not active)

More entries:
Report the value of EC50 obtained on H4 for C=CCn1c(SCC(N)=O)nnc1-c1cc2c(s1)CCC(CC)C2 (stereo unspecified) .
5.64 µM (active)

Report the value of EC50 obtained on H4 for CCOc1ccc2nc(N3CCCC(C(=O)NCC4CCCO4)C3)sc2c1 (stereo unspecified) .
17.2 µM (active)

Report the value of EC50 obtained on H4 for `Nc1ccccc1Nc1cc(-c2ccccc2)[nH]n1` .
12.1 µM (active)

Report the value of EC50 obtained on H4 for Cc1ccc(C(=O)CCC2CCCCC2=O)cc1 (stereo unspecified) .
28.4 µM (active)

Report the value of EC50 obtained on H4 for `CC(=O)Nc1ccc(SCc2ncc(-c3ccccc3)o2)cc1` .
11.2 µM (active)

Report the value of EC50 obtained on H4 for `O=C(COc1ccc(Br)cc1Br)NC(=O)NC1CCCC1` .
> 120 µM (not active)

Report the value of EC50 obtained on H4 for `O=c1c2c(-c3ccccc3)ccnc2[nH]n1-c1ccccc1` .
> 120 µM (not active)

----------
Catalogue of IC50 values
Target: DNA dC->dU-editing enzyme APOBEC-3A (Homo sapiens, UniProt P31941)
Sequence (P31941 whole entry): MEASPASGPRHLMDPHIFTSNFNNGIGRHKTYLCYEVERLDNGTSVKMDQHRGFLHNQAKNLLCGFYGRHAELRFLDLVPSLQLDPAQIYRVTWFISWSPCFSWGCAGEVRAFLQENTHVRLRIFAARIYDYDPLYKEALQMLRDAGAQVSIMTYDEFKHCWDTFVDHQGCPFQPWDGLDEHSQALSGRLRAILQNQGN
Test: Dose Response confirmation of small molecule APOBEC3A DNA Deaminase Inhibitors via a fluorescence-based single-stranded DNA deaminase assay. [Related pubchem assays (depositor defined):AID493011, AID493024]
Assay type: functional
The source made the active and inactive calls.

Supply recorded IC50 for `CN(C)CCCNc1c2ccccc2nc2ccccc12` here.
18 µM (active)

Supply recorded IC50 for `C[N+](C)(C)CCCCCC(=O)C=NO` here.
5.54 µM (active)

Supply recorded IC50 for `CCCCCn1ccc(=N)cc1` here.
1.3 µM (active)

More entries:
Supply recorded IC50 for `CCCC[n+]1c(C)sc2cc(OC)ccc21` here.
36 µM (active)

----------
Target: Heat shock protein HSP 90-alpha (Homo sapiens)
Type: functional, organism-based
The source made the active and inactive calls.
Catalogue of AC50 values

Supply recorded AC50 for `Cc1cc(C)cc(N2C(=O)C=CC2=O)c1` here.
499 nM (active)

Supply recorded AC50 for CCC(=O)NC(c1ccc(C)cc1)c1ccc2cccnc2c1O (centres undefined) here.
3350 nM (active)

Supply recorded AC50 for `[O-][n+]1ccccc1S` here.
1010 nM (active)

Supply recorded AC50 for `CC(=NNC(=S)Nc1cccc(C)c1)c1ccccn1` here.
2250 nM (active)

Supply recorded AC50 for CCCC(=O)NC(c1ccc(Cl)cc1)c1ccc2cccnc2c1O (centres undefined) here.
4040 nM (active)

Supply recorded AC50 for CCCCCCCCCCCCCCCC(=O)OC(CC(=O)O)C[N+](C)(C)C (centres undefined) here.
1390 nM (active)

Supply recorded AC50 for `O=C(/C=C/c1ccccn1)c1cc(Br)ccc1O` here.
2030 nM (active)

Supply recorded AC50 for `Oc1ccccc1-c1nc(NC2CCCC2)c2ccccc2n1` here.
4230 nM (active)

Supply recorded AC50 for `CN(O)C(=S)c1ccccc1` here.
521 nM (active)

Supply recorded AC50 for `O=C(CCN1C(=O)/C(=C/c2cccs2)SC1=S)NC1=NCCS1` here.
5030 nM (active)

Supply recorded AC50 for `CC[C@@H](C)[C@H](NC(=O)OC(C)(C)C)c1nnc(S(=O)(=O)Cc2cc(C)ccc2C)o1` here.
4360 nM (active)

Supply recorded AC50 for CC1CCN(C2CC(=O)N(c3ccc(Br)cc3Br)C2=O)CC1 (centres undefined) here.
< 195 nM (active)

Supply recorded AC50 for `CC1=CC(=O)C=C(C)C1=NOS(=O)(=O)c1ccccc1` here.
928 nM (active)

Supply recorded AC50 for `O=C1Nc2ccc(Br)cc2/C1=C/C(=O)c1ccccc1` here.
986 nM (active)

----------
Target: Dual specificity protein phosphatase 6 (Rattus norvegicus);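 also: confirmatory in vitro dose-response testing of MKP-3 inhibition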;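 also: recombinant His-tagged MKP-3 made in E. coli BL21 with OMFP substrate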
Sequence (Q64346 whole entry): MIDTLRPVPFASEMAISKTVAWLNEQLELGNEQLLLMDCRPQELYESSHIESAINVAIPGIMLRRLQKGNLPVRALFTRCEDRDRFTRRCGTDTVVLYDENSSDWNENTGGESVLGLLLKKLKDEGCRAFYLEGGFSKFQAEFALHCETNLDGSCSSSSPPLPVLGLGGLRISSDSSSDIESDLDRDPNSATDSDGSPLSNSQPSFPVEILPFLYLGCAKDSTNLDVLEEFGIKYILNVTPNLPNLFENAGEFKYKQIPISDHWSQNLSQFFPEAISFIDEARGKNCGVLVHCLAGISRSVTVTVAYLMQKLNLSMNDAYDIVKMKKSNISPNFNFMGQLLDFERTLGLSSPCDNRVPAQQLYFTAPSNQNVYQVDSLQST
Format: functional
Calls of active or inactive are those of the source.
Catalogue of IC50 values

Before answering, review these 3 worked examples.
Supply recorded IC50 for `Cn1c(=O)n(-c2ccc(Cl)cc2)c(=O)n([C@@H](Cc2ccccc2)C(N)=O)c1=O` here.
> 100 µM (inactive)

Supply recorded IC50 for `CCCCCCCCCCCCCCCCCCC#CCCCCCCCCCCCC(=O)O` here.
> 100 µM (inactive)

Supply recorded IC50 for `CCOc1ccc(-n2c(N)c(C(=O)N3CCN(C)CC3)sc2=S)cc1` here.
> 99 µM (inactive)

More entries:
Supply recorded IC50 for `COc1cc(C(=S)NCc2ccc(O)cc2)ccc1O` here.
> 100 µM (inactive)

Supply recorded IC50 for `COc1cc(C(=S)NCc2ccc(C)cc2C)ccc1O` here.
> 100 µM (inactive)

----------
Biological target: Cytochrome P450 2D6 (Homo sapiens, UniProt P10635)
Sequence (P10635 whole entry): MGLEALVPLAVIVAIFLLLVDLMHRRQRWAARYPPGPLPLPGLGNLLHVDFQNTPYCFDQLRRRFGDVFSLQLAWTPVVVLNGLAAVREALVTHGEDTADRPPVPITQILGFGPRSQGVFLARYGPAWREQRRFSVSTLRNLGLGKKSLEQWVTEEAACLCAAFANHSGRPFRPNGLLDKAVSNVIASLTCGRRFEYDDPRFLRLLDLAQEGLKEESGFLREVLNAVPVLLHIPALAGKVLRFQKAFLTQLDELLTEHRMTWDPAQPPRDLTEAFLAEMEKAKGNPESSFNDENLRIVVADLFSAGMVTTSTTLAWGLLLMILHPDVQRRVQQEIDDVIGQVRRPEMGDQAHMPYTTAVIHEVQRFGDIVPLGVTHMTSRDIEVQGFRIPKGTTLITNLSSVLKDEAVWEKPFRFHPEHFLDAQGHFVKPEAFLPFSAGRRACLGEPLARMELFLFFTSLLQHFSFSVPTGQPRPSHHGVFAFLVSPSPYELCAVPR
Experiment: qHTS Assay for Inhibitors and Substrates of Cytochrome P450 2D6. [Related pubchem assays: 410 ]
Assay type: ADME
Conditions: read-out: Potency
Catalogue of AC50 values

Supply recorded AC50 for `O=c1c(O)c(-c2cccc(O)c2)oc2ccccc12` here.
25.1 µM (inconclusive)

Supply recorded AC50 for `Cc1c(O)c(=O)ccn1Cc1ccccc1` here.
3.16 µM (inconclusive)

Supply recorded AC50 for Cc1nc2ccccn2c(=O)c1CCN1CCC(C(=O)c2ccc(F)cc2)CC1 [PIRENPERONE] here.
7.94 µM (inconclusive)

Supply recorded AC50 for `NCCC[C@@H](CC(=O)N[C@@H]1CCNC[C@H]1C(=O)N[C@H](CC(=O)N[C@@H](CCC(=O)O)CC(=O)O)Cc1c[nH]c2ccccc12)NC(=O)C[C@H](Cc1c[nH]c2ccccc12)NC(=O)[C@@H]1CNCC[C@H]1N` here.
39.8 µM (inconclusive)

// below: AC50 requested for another compound
Supply recorded AC50 for COC(=O)NC(c1ccco1)C(C(C)=O)C(=O)OC (stereo not given) here.
3.16 µM (inconclusive)

----------
Catalogue of IC50 values
Target: Polyadenylate-binding protein 1 (Homo sapiens, UniProt P11940)
Sequence (P11940 whole entry): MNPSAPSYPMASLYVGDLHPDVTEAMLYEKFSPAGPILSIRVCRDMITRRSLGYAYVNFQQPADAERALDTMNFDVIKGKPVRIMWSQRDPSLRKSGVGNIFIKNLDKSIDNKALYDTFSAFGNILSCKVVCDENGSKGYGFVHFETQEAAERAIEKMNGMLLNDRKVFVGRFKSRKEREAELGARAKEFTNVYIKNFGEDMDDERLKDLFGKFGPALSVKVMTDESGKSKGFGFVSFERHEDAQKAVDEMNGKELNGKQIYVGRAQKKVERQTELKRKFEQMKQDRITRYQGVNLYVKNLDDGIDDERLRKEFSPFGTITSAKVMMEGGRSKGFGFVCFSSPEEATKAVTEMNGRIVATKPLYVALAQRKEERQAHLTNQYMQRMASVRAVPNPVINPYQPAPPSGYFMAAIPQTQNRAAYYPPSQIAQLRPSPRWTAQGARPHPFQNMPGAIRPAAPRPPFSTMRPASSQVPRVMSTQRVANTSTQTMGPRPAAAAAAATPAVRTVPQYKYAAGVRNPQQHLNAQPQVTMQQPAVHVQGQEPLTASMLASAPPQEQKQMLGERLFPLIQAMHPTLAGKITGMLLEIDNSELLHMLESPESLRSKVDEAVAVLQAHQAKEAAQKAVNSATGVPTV
Test: MLLE binding blockers, Cy5 peptide tracer – biochemical, fluorescence polarization, Cy5-PAM2 peptide, secondary, miRNA deadenylation inhibitor project, dose response (AID 602260)
Assay type: functional
Conditions: read-out: IC50_Mean
Activity calls are given as the source filed them.

Before answering, review these 2 worked examples.
Supply recorded IC50 for `COC(=O)c1sc(=S)n(-c2cc(F)ccc2F)c1N` here.
> 66 µM (inactive)

Supply recorded IC50 for `CC1CCN(c2ccccc2NC(=S)NC(=O)c2ccco2)CC1` here.
> 66 µM (inactive)

// below: IC50 requested for another compound
Supply recorded IC50 for CC(C)Oc1ccc(C(=O)NC2(C(F)(F)F)N=C3SCCN3C2=O)cc1 (stereo not drawn) here.
> 66 µM (inactive)
